target-system: MCL-1 (Homo sapiens (Human), UniProt Q07820)
Sequence (Q07820 whole entry): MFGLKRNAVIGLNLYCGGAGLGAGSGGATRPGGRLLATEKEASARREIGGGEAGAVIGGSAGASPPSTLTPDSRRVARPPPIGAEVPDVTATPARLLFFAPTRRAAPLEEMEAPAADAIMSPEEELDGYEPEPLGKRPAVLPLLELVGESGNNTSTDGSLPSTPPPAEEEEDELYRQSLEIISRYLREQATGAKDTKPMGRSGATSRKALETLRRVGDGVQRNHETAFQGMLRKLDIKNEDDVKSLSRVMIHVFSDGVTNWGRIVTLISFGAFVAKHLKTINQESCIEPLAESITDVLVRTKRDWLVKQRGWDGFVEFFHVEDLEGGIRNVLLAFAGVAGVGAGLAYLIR
protocol-notes: Cell free Mcl-1:Bim affinity assay (fluorescence polarization competition)
Assay type: binding
condition: 15 nM MCL-1, 5 nM FITC-Bim, 1 hour at room temperature; class symbols; read-out: BIM_Ki
assay-endpoint: Ki

In plain terms, CO[C@@H]1/C=C/CCC2(CCC2)C(=O)NS(=O)(=O)c2ccc3c(c2)N(C[C@@H]2CC[C@H]21)C[C@@]1(CCCc2cc(Cl)ccc21)CO3 has a documented Ki of 1 to 100 nM

In plain terms, COC[C@@H]1CC/C=C/[C@@H](OC)[C@@H]2CC[C@H]2CN2C[C@@]3(CCCc4cc(Cl)ccc43)COc3ccc(cc32)S(=O)(=O)NC1=O has a documented Ki of < 1 nM

In plain terms, CN1C/C=C/[C@H](OC(=O)N[C@H]2CCOC2)[C@@H]2CC[C@H]2CN2C[C@@]3(CCCc4cc(Cl)ccc43)COc3ccc(cc32)S(=O)(=O)NC(=O)C1(C)C has a documented Ki of < 1 nM

In plain terms, CC1(C)OC/C=C/[C@H](OC(=O)NCC(F)F)[C@@H]2CC[C@H]2CN2C[C@@]3(CCCc4cc(Cl)ccc43)COc3ccc(cc32)S(=O)(=O)NC1=O has a documented Ki of < 1 nM

In plain terms, CNCCN(C)C(=O)O[C@H]1/C=C/COC(C)(C)C(=O)NS(=O)(=O)c2ccc3c(c2)N(C[C@@H]2CC[C@H]21)C[C@@]1(CCCc2cc(Cl)ccc21)CO3 has a documented Ki of < 1 nM

In plain terms, CCN1C/C=C/[C@H](OC(=O)N2CCOCC2)[C@@H]2CC[C@H]2CN2C[C@@]3(CCCc4cc(Cl)ccc43)COc3ccc(cc32)S(=O)(=O)NC(=O)C1(C)C has a documented Ki of < 1 nM

Every entry's value here was drawn from patent US11130769B2.
